Where do the numbers come from? From paper PMC4467398.

System: Acute myeloid leukemia MV4;11
Assay: In vitro proliferation assay (sulphorodamine B)
Format: cell-based
Conditions: Homo sapiens, 72 h, mean ± S.E.M.
parameter: IC50 (nM)
Numbers only, in nM.

Record summary for CC(=O)SCCCCC[C@H](NC(=O)[C@H]1CCC(=O)N1)C(=O)Nc1ccccc1 [ST7612AA1] : reported IC50 = 190

* * *

Assay: PK sampling and analysis after a single oral dose of ST7612AA1 (plasma, LC-MS/MS)
Type: in vivo, CD1 mice
Conditions: male, CD1 nude, mouse; ST7464AA1 in plasma; single oral dose of 120 mg/kg of ST7612AA1
Method: CD1 nude mice were used. Male mice were treated with a single dose of ST7612AA1 at 120 mg/10 mL/kg p.o., using 5% Solutol HS 15 in water for injection as vehicle. Blood samples were collected at 0.25, 0.5, 1, 2, 4 and 6 h post treatment from 5 animals per time point. Levels of ST7612AA1 and ST7464AA1 were determined in plasma by quantitative LC-MS/MS having a limit of quantification of 25 ng/mL. […]
parameter: AUC(0-inf) (ng·h/mL)
Answers are plain numbers, in ng·h/mL.

Briefly, AUC(0-inf) measured for `O=C1CC[C@H](C(=O)N[C@@H](CCCCCS)C(=O)Nc2ccccc2)N1` : 5510
